Cited source: paper PMC6050274

# test.details: Plasma pharmacokinetics after i.v. and oral administration in male and female mice
# Format: in vivo, FVB mice
# experimental.conditions: FVB, mouse, plasma, po; p.o. (5 mg/kg), female
outcome.measure: Tmax (min)

Nc1cc(C(F)(F)F)c(-c2cc(N3CCOCC3)nc(N3CCOCC3)n2)cn1 ... 40.2

====

# test.details: Plasma and brain levels after oral administration in wildtype mice
# Type: in vivo, FVB mice
# experimental.conditions: FVB, mouse, brain/plasma, other: intravenous and oral; i.v. 2 mg/kg and oral 1, 2, 5 mg/kg (Figs 2C, 3A); read-out: brain-plasma ratio
outcome.measure: Kp at 1 h

Nc1cc(C(F)(F)F)c(-c2cc(N3CCOCC3)nc(N3CCOCC3)n2)cn1 [buparlisib] ... 1.5 to 2

====

# test.details: Brain and tissue penetration after i.v. administration in wildtype and P-gp/BCRP knockout mice
# Format: in vivo, FVB mice
# experimental.conditions: FVB, mouse, brain/plasma, intravenous, 2 mg/kg i.v., all strains (WT, Abcg2-/-, Abcb1a/b-/-, Abcb1a/b;Abcg2-/-), read-out: brain-plasma ratio
outcome.measure: Kp at 1 h

Nc1cc(C(F)(F)F)c(-c2cc(N3CCOCC3)nc(N3CCOCC3)n2)cn1 ... 1.5 to 2

====

# test.details: Plasma pharmacokinetics after i.v. and oral administration in male and female mice
# Format: in vivo, FVB mice
# experimental.conditions: FVB, mouse, plasma, po; p.o. (5 mg/kg), male
outcome.measure: half-life (h)

Nc1cc(C(F)(F)F)c(-c2cc(N3CCOCC3)nc(N3CCOCC3)n2)cn1 [buparlisib] ... 1.44

====

# test.details: Plasma pharmacokinetics after i.v. and oral administration in male and female mice
# Format: in vivo, FVB mice
# experimental.conditions: FVB, mouse, plasma, iv; i.v. (2 mg/kg), female
outcome.measure: Cmax (ng/mL)

Nc1cc(C(F)(F)F)c(-c2cc(N3CCOCC3)nc(N3CCOCC3)n2)cn1 ... 1900

====

# test.details: Plasma pharmacokinetics after i.v. and oral administration in male and female mice
# Type: in vivo, FVB mice
# experimental.conditions: FVB, mouse, plasma, po; p.o. (5 mg/kg), male; read-out: Vz/F
outcome.measure: Vd/F (L/kg)

Nc1cc(C(F)(F)F)c(-c2cc(N3CCOCC3)nc(N3CCOCC3)n2)cn1 ... 0.64

====

# test.details: Plasma pharmacokinetics after i.v. and oral administration in male and female mice
# Format: in vivo, FVB mice
# experimental.conditions: FVB, mouse, plasma, po; p.o. (5 mg/kg), male
outcome.measure: CL/F (mL/min/kg)

Nc1cc(C(F)(F)F)c(-c2cc(N3CCOCC3)nc(N3CCOCC3)n2)cn1 ... 5.17

====

# test.details: Plasma and brain levels after oral administration in wildtype mice
# Format: in vivo, FVB mice
# experimental.conditions: FVB, mouse, plasma; 5 mg/kg oral, WT mice, 1 hour; read-out: plasma level
outcome.measure: concentration at 1 h

Nc1cc(C(F)(F)F)c(-c2cc(N3CCOCC3)nc(N3CCOCC3)n2)cn1 [buparlisib] ... ~1200 ng/mL

====

# test.details: Plasma pharmacokinetics after i.v. and oral administration in male and female mice
# Assay type: in vivo, FVB mice
# experimental.conditions: FVB, mouse, plasma, iv; i.v. (2 mg/kg), female; read-out: Vz
outcome.measure: Vd (L/kg)

Nc1cc(C(F)(F)F)c(-c2cc(N3CCOCC3)nc(N3CCOCC3)n2)cn1 ... 0.86
